Provide the reported pIC50 of each item.
Test system: A549
ASSAY_METHOD_TEXT: Cytotoxicity against human […] cells after 72 hrs by MTT assay
Type: functional, cell-based
ASSAY_SETUP: a549; read-out: IC50
Remember, pIC50 is on a log scale: it is -log10 of the molar concentration.

Returns the measured pIC50 for the input compound. Input: COC(=O)[C@@H]1Cc2c([nH]c3ccccc23)[C@H](c2ccc(OC)cc2)N1c1nc(N2CCN(C)CC2)nc(N2CCN(C)CC2)n1 (racemic)
5.20

Returns the measured pIC50 for the input compound. Input: `COC(=O)[C@@H]1Cc2c([nH]c3ccccc23)[C@H](c2ccc(OC)cc2)N1c1nc(N2CCN(C)CC2)nc(N2CCN(C)CC2)n1`
5.50

Returns the measured pIC50 for the input compound. Input: COC(=O)[C@@H]1Cc2c([nH]c3ccccc23)[C@@H](c2ccc(OC)cc2)N1c1nc(N2CCN(C)CC2)nc(N2CCN(C)CC2)n1 (racemic)
5.25

Returns the measured pIC50 for the input compound. Input: `COC(=O)[C@@H]1Cc2c([nH]c3ccccc23)[C@@H](c2ccc(OC)cc2)N1c1nc(N2CCN(C)CC2)nc(N2CCN(C)CC2)n1`
5.68

====

Provide the reported IC50 of each item.
Test system: KB
ASSAY_METHOD_TEXT: Cytotoxicity against human KB cells after 72 hrs by MTT assay
Type: functional, cell-based
ASSAY_SETUP: Homo sapiens, KB, 72 h
Only the number, expressed in nM, is required.

Returns the measured IC50 for the input compound. Input: COC(=O)[C@@H]1Cc2c([nH]c3ccccc23)[C@@H](c2ccc(C)cc2)N1c1nc(N2CCN(C)CC2)nc(N2CCN(C)CC2)n1 (racemic)
106

Returns the measured IC50 for the input compound. Input: `CCCN1CCN(c2nc(N3CCN(CCC)CC3)nc(N3[C@H](c4ccc(OC)cc4)c4[nH]c5ccccc5c4C[C@H]3C(=O)OC)n2)CC1`
3540

Returns the measured IC50 for the input compound. Input: `COC(=O)[C@H]1Cc2c([nH]c3ccccc23)[C@H](c2ccc(C)cc2)N1c1nc(N2CCN(C)CC2)nc(N2CCN(C)CC2)n1`
1860

Returns the measured IC50 for the input compound. Input: CCCNc1nc(NCCC)nc(N2[C@@H](c3ccc(C)cc3)c3[nH]c4ccccc4c3C[C@@H]2C(=O)OC)n1 (racemic)
665

Returns the measured IC50 for the input compound. Input: `COC(=O)[C@H]1Cc2c([nH]c3ccccc23)[C@H](c2ccc(OC)cc2)N1c1nc(N2CCN(C)CC2)nc(N2CCN(C)CC2)n1`
990

Returns the measured IC50 for the input compound. Input: `COC(=O)[C@H]1Cc2c([nH]c3ccccc23)[C@@H](c2ccccc2)N1c1nc(N2CCN(C)CC2)nc(N2CCN(C)CC2)n1`
1830

Returns the measured IC50 for the input compound. Input: COC(=O)[C@@H]1Cc2c([nH]c3ccccc23)[C@H](c2cc(OC)c(OC)c(OC)c2)N1c1nc(N2CCN(C)CC2)nc(N2CCN(C)CC2)n1 (racemic)
17900

Returns the measured IC50 for the input compound. Input: `CCN1CCN(c2nc(N3CCN(CC)CC3)nc(N3[C@H](c4ccc(OC)cc4)c4[nH]c5ccccc5c4C[C@H]3C(=O)OC)n2)CC1`
1220

Returns the measured IC50 for the input compound. Input: COC(=O)[C@H]1Cc2c([nH]c3ccccc23)[C@H](c2ccc(Cl)cc2)N1c1nc(N2CCN(C)CC2)nc(N2CCN(C)CC2)n1 (racemic)
1980

Returns the measured IC50 for the input compound. Input: `COC(=O)[C@@H]1Cc2c([nH]c3ccccc23)[C@@H](c2ccc(C(C)C)cc2)N1c1nc(N2CCN(C)CC2)nc(N2CCN(C)CC2)n1`
3730

Returns the measured IC50 for the input compound. Input: `COC(=O)[C@@H]1Cc2c([nH]c3ccccc23)[C@H](c2ccc(C(C)C)cc2)N1c1nc(N2CCN(C)CC2)nc(N2CCN(C)CC2)n1`
6880

Returns the measured IC50 for the input compound. Input: `COC(=O)[C@H]1Cc2c([nH]c3ccccc23)[C@H](c2ccccc2)N1c1nc(N2CCN(C)CC2)nc(N2CCN(C)CC2)n1`
1980

Returns the measured IC50 for the input compound. Input: COC(=O)[C@H]1Cc2c([nH]c3ccccc23)[C@H](c2cc(OC)c(OC)c(OC)c2)N1c1nc(N2CCN(C)CC2)nc(N2CCN(C)CC2)n1 (relative stereo)
2430

Returns the measured IC50 for the input compound. Input: CCCNc1nc(NCCC)nc(N2[C@@H](c3ccc(OC)cc3)c3[nH]c4ccccc4c3C[C@@H]2C(=O)OC)n1 (racemic)
122

Returns the measured IC50 for the input compound. Input: `COC(=O)[C@H]1Cc2c([nH]c3ccccc23)[C@@H](c2ccc(OC)cc2)N1c1nc(N2CCN(C)CC2)nc(N2CCN(C)CC2)n1`
1820

====

Test system: K562
ASSAY_METHOD_TEXT: Cytotoxicity against human K562 cells after 72 hrs by MTT assay
Format: functional, cell-based
ASSAY_SETUP: k562; read-out: IC50
RECORDED_ENDPOINT: IC50 (µM)
Only the number, expressed in µM, is required.

Returns the measured IC50 for the input compound. Input: `COC(=O)[C@@H]1Cc2c([nH]c3ccccc23)[C@H](c2ccc(OC)cc2)N1c1nc(N2CCN(C)CC2)nc(N2CCN(C)CC2)n1`
4.83

====

ASSAY_METHOD_TEXT: Cytotoxicity against mouse NIH/3T3 cells after 72 hrs by MTT assay
Format: cell-based, NIH3T3
ASSAY_SETUP: nih3t3; read-out: IC50
RECORDED_ENDPOINT: IC50 (nM)
Only the number, expressed in nM, is required.

Returns the measured IC50 for the input molecule. Input: `COC(=O)[C@@H]1Cc2c([nH]c3ccccc23)[C@@H](c2ccc(OC)cc2)N1c1nc(N2CCN(C)CC2)nc(N2CCN(C)CC2)n1`
1960

Returns the measured IC50 for the input molecule. Input: `COC(=O)[C@@H]1Cc2c([nH]c3ccccc23)[C@H](c2ccc(OC)cc2)N1c1nc(N2CCN(C)CC2)nc(N2CCN(C)CC2)n1`
1620

Returns the measured IC50 for the input molecule. Input: COC(=O)[C@@H]1Cc2c([nH]c3ccccc23)[C@@H](c2ccc(OC)cc2)N1c1nc(N2CCN(C)CC2)nc(N2CCN(C)CC2)n1 (racemic)
4780
